tested on: K-562 leukemia; test: NCI tumour cell line growth inhibition, 48 h
Below, each entry is listed with its recorded GI50.
measure: GI50

>  <compound>
O=C(N/N=C/c1ccc(F)cc1)c1ccc(C(F)(F)F)nc1Nc1cccc(C(F)(F)F)c1

>  <measure>
GI50

>  <testValue>
1.07 µM

$$$$
>  <compound>
Nc1nc(=S)c2[nH]cnc2[nH]1

>  <measure>
GI50

>  <testValue>
0.488 µM

$$$$
>  <compound>
CC1(C)CC[C@]2(C(=O)O)CC[C@]3(C)C(=CC[C@@H]4[C@@]5(C)C/C(=C/c6ccco6)C(=O)C(C)(C)[C@@H]5CC[C@]43C)[C@@H]2C1

>  <measure>
GI50

>  <testValue>
3.37 µM

$$$$
>  <compound>
CNCc1ccc(-c2[nH]c3cc(F)cc4c3c2CCNC4=O)cc1

>  <measure>
GI50

>  <testValue>
18 µM

$$$$
>  <compound>
OCC#Cc1ccccc1C#Cc1ccc(C#Cc2ccccc2)cc1

>  <measure>
GI50

>  <testValue>
3.92 µM

$$$$
>  <compound>
C#Cc1cccc(NC(=O)C2CCCN(C(=O)CCl)C2)c1 (stereo not given)

>  <measure>
GI50

>  <testValue>
36.6 µM

$$$$
>  <compound>
COc1ccc(Cc2nc3cc(OC)c(OC)cc3c(=O)[nH]2)cc1

>  <measure>
GI50

>  <testValue>
34.3 µM

$$$$
>  <compound>
OCCCCC#Cc1ccccc1C#Cc1ccc(C(F)(F)F)cc1

>  <measure>
GI50

>  <testValue>
18.2 µM

$$$$
>  <compound>
C=C(Cl)[C@@](Cl)(CBr)CC[C@@H](Br)C(C)(C)Cl

>  <measure>
GI50

>  <testValue>
1.7 µM

$$$$
>  <compound>
CCN1CCN(c2nc(NNC(=O)c3ccccc3)nc(N3CCN(C(c4ccccc4)c4ccccc4)CC3)n2)CC1

>  <measure>
GI50

>  <testValue>
1.77 µM

$$$$
